target: BCL6 (Homo sapiens (Human), UniProt P41182); assay: Immunofluorescence high content imaging of BCL6 degradation in T47D cells; type: cell-based; conditions: T47D
Measured Dmax accompanies every entry in the list below.
measured quantity: Dmax

CNC(=O)CNc1cc2cc(Nc3nc(N4CCN(CC5CCN(c6ccc7c(c6)C(=O)N(C6CCC(=O)NC6=O)C7=O)CC5)CC4)ncc3Cl)ccc2n(C)c1=O (centres unmarked) [compound 262] = ≥ 70%
CCn1c(=O)c(OCC(=O)NC)cc2cc(Nc3nc(N4CCC(OC5CN(CC6CN(c7ccc8c(c7)C(=O)N(C7CCC(=O)NC7=O)C8=O)C6)C5)CC4)ncc3Cl)ccc21 (centres unmarked) [compound 309] = 50 to 70%
CNC(=O)COc1cc2cc(Nc3nc(N4CC5(CCC(OC6CCN(c7ccc8c(c7)C(=O)N(C7CCC(=O)NC7=O)C8=O)CC6)CC5)C4)ncc3Cl)ccc2n(C(C)C)c1=O (centres unmarked) [compound 444] = 50 to 70%
CNC(=O)COc1cc2cc(Nc3nc(N4CCC5(CCN(CC6CCN(c7cccc8c7C(=O)N(C7CCC(=O)NC7=O)C8=O)CC6)CC5)CC4)ncc3Cl)ccc2n(C(C)C)c1=O (centres unmarked) [compound 533] = ≥ 70%
CNC(=O)COc1cc2cc(Nc3nc(N4CCN(CCN5CCN(c6ccc7c(c6)C(=O)N(C6CCC(=O)NC6=O)C7=O)CC5)CC4)ncc3Cl)ccc2n(C)c1=O (centres unmarked) [compound 229] = 50 to 70%
